read-out: growth arrest and DNA damage 45 (GADD45A), GADD45A (gene 1647); assay: LTEA_HepaRG_GADD45A: Life Technologies and Expression Analysis (LTEA) Assay for growth arrest and DNA damage 45 (GADD45A) using HepaRG (AID 2283458); details: mRNA level, 48 h; actives raise or lower the signal
Activity calls are given as the source filed them. Rule for the calls: active = hit-call score of the fitted dose curve at least 0.9, where 1 is the maximum; inactive = score below 0.9.
# valid calls are active, inactive; nothing else

Hey, what did the test say about Nc1cnn(-c2ccccc2)c(=O)c1Cl ?
inactive

Hey, what did the test say about CC(C)C1(C)N=C(c2ncccc2C(=O)O)NC1=O (stereo not given) ?
inactive

Hey, what did the test say about CN=C=S ?
inactive

Hey, what did the test say about COC(=O)NC(=S)Nc1ccccc1NC(=S)NC(=O)OC ?
inactive

Hey, what did the test say about CC(C)(C)C(=O)C(Oc1ccc(Cl)cc1)n1cncn1 (stereo not given) ?
inactive

Hey, what did the test say about CC(C)Oc1cccc(NC(=O)c2ccccc2C(F)(F)F)c1 ?
inactive

Hey, what did the test say about Cn1c(-c2ccccc2)cc(-c2ccccc2)[n+]1C ?
inactive

Hey, what did the test say about CCCN(CC)CC1COC2(CCC(C(C)(C)C)CC2)O1 (stereo not given) ?
inactive

Hey, what did the test say about COC(=O)N(C(=O)N1CO[C@@]2(C(=O)OC)Cc3cc(Cl)ccc3C2=N1)c1ccc(OC(F)(F)F)cc1 ?
inactive

Hey, what did the test say about O=C1C2CC=CCC2C(=O)N1SC(Cl)(Cl)Cl (stereo not given) ?
inactive

Hey, what did the test say about CC(C)NC(=O)N1CC(=O)N(c2cc(Cl)cc(Cl)c2)C1=O ?
inactive

Hey, what did the test say about COCc1cnc(C2=NC(C)(C(C)C)C(=O)N2)c(C(=O)O)c1 (stereo not given) ?
inactive

Hey, what did the test say about CCNC(=O)NC(=O)C(C#N)=NOC ?
active

Hey, what did the test say about CC(C)N1C(=O)N(c2ccccc2)CSC1=NC(C)(C)C ?
active

Hey, what did the test say about Clc1nc(Cl)nc(Nc2ccccc2Cl)n1 ?
inactive

Hey, what did the test say about CN/C(=N\[N+](=O)[O-])NCc1cnc(Cl)s1 ?
inactive

Hey, what did the test say about CC1(C)C(C(=O)OC(C#N)c2cccc(Oc3ccccc3)c2)C1(C)C (stereo not given) ?
inactive

====

read-out: Vascular cell adhesion molecule 1 (VCAM1), VCAM1 (gene 7412); assay: BSK_hDFCGF_VCAM1: BioMAP Diversity Plus: hDFCGF Assay for Vascular cell adhesion molecule 1 (VCAM1) Biomarker Activity (AID 2283065); settings: primary human foreskin fibroblasts; actives raise or lower the signal
Calls of active or inactive are those of the source. The calls were made as follows: active = hit-call score of the fitted dose curve at least 0.9, where 1 is the maximum; inactive = score below 0.9.
# valid calls are class 1 for active, class 0 for inactive; nothing else

The examples below pair each entry with its known result.
C=C(C)CN(CC)c1c([N+](=O)[O-])cc(C(F)(F)F)cc1[N+](=O)[O-]	class 0
CS(=O)(=O)c1ccc(C(=O)C2C(=O)CCCC2=O)c([N+](=O)[O-])c1	class 0
CCCCOCN(C(=O)CCl)c1c(CC)cccc1CC	class 1
CC1(C)CON(Cc2ccccc2Cl)C1=O	class 0
O=C1C2CC=CCC2C(=O)N1SC(Cl)(Cl)Cl (configuration not stated)	class 1
CCOc1cc(C(C)(C)C)ccc1C1COC(c2c(F)cccc2F)=N1 (configuration not stated)	class 1
Clc1nc(Cl)nc(Nc2ccccc2Cl)n1	class 1
CC(C)(C)C(=O)C(Oc1ccc(Cl)cc1)n1cncn1 (configuration not stated)	class 0

Hey, what did the test say about CC1(C)C(C(=O)OC(C#N)c2cccc(Oc3ccccc3)c2)C1(C)C (configuration not stated) ?
class 0

Hey, what did the test say about CC(C)N1C(=O)c2ccccc2NS1(=O)=O ?
class 0

Hey, what did the test say about COP(=O)(OC)O/C(C)=C/C(=O)N(C)C ?
class 0

Hey, what did the test say about O=C(Nc1ccccc1-c1ccc(Cl)cc1)c1cccnc1Cl ?
class 0
